- EXPERIMENT: growth suppression of PTEN-deleted HCT116, pilot screen, cell-based, HCT116 clonal line, CellTiter-Glo (AID 824);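 further: 0% = 20 µM Hyamine control and 100% = vehicle cell control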
- STATED CONDITIONS: 60 h, at 10 µM
Records with an inconclusive call do not appear. Activity calls are given as the source filed them.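 How the source made its calls: active means viability at or below 27.92% in each of two runs, the all-compound median minus 4 SD; inconclusive means no clear call, values can overlap the other calls; inactive means the rest.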
Write down one outcome, taken from 1.0 (active), 0.0 (inactive)

In [3]: df
Out[3]:
                                   molecule  category_label
0  CC(=O)CSc1nc2ccc(Nc3nc(N4CCOCC4)nc(N4CCOCC4)n3)cc2s1             0.0
1              CCOc1ccc(C(F)(F)F)cc1NC(C)=O             0.0
2  COc1cccc(C(=O)Nc2ccc(S(=O)(=O)Nc3onc(C)c3C)cc2)c1             0.0
3  O=C(CCCSc1nc2sc3c(c2c(=O)[nH]1)CCC3)NCCCO             0.0

# input For this molecule, state the assay outcome: COc1ccc(-n2c(SCC(=O)Nc3cc(C)on3)nc3c(c2=O)SCC3)cc1
# output 0.0

# input For this molecule, state the assay outcome: CCOC(=O)c1ccccc1Nc1cc(C)nc2nc(C)nn12
# output 0.0

# input For this molecule, state the assay outcome: CCOc1ccc(N(CC(=O)N2CCCC2)S(=O)(=O)c2c(C)noc2C)cc1
# output 0.0

# input For this molecule, state the assay outcome: CCOC(=O)CNC(=O)C(NC(=O)C1CCC(C)CC1)C(C)CC (stereo not drawn)
# output 0.0

# input For this molecule, state the assay outcome: Cc1cccc(N2CCN(C(=O)C3CCN(S(=O)(=O)c4cccc5cccnc45)CC3)CC2C)c1 (stereo not drawn)
# output 0.0

# input For this molecule, state the assay outcome: O=C(Nc1ccc2c(c1)OCO2)c1cc(C2CC2)on1
# output 0.0

# input For this molecule, state the assay outcome: COc1cc(OC)nc(NC(=O)C(C)C)n1
# output 0.0

# input For this molecule, state the assay outcome: CC1(C)Cc2c(C#N)c(NCCCO)nc(-c3ccccc3)c2CO1
# output 0.0

# input For this molecule, state the assay outcome: N#CC1=C(SCc2ccccc2)NC(=O)CC1c1ccc(O)cc1 (stereo not drawn)
# output 0.0

# input For this molecule, state the assay outcome: COc1ccc(OC)c2c1sc(=NC(=O)CN1C(=O)CCC1=O)n2C
# output 0.0

# input For this molecule, state the assay outcome: c1nc(N2CCNCC2)c2sc3nc(N4CCOCC4)c4c(c3c2n1)CCC4
# output 1.0

# input For this molecule, state the assay outcome: Cc1ccc(CC2CC(=O)N(c3cc(C)on3)C2=O)cc1 (stereo not drawn)
# output 0.0

# input For this molecule, state the assay outcome: Cc1ccc(CSc2nnc(Cn3c(=O)sc4ccccc43)n2C)cc1
# output 0.0

# input For this molecule, state the assay outcome: CC(CCc1ccco1)NC(=O)Cn1ncc2c(=O)oc3ccccc3c21 (stereo not drawn)
# output 0.0

# input For this molecule, state the assay outcome: CSC1=NCCN1C(=O)COc1ccccc1
# output 0.0

# input For this molecule, state the assay outcome: CCOC(=O)N1CCN(C(=O)c2ccc3c(SCC(=O)O)c4c(nc3c2)CCC4)CC1
# output 0.0

# input For this molecule, state the assay outcome: COc1ccc(C2C(C(=O)N3CCN(c4ccccc4)CC3)c3ccccc3C(=O)N2C)cc1 (stereo not drawn)
# output 0.0

# input For this molecule, state the assay outcome: O=C(c1ccc2nc(N3CCOCC3)sc2c1)N1CCN(C(=O)c2ccco2)CC1
# output 0.0

# input For this molecule, state the assay outcome: Cc1ccc(CNC(=O)CCS(=O)(=O)c2cccc3nsnc23)cc1
# output 0.0

====

- EXPERIMENT: inhibitors of the yeast RAM network, pilot screen, dse1pr::URA3 reporter, 5-FOA selection (AID 869);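 further: 0% = DMSO wells with no growth and 100% = 10 µM 1-NA-PP1 with full growth; RAM network block rescues cells from 5-FOA so hits raise OD615 growth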
- STATED CONDITIONS: S. cerevisiae dse1pr::URA3 5-FOA growth, OD615, 2 d; at 10 µM; stronger effect = higher value; strain carries analog-sensitive mutant Cbk1 kinase
MEASUREMENT LABEL: inhibition (%)
Report as a plain number; the unit % is understood.

In the examples that follow, each entry is paired with its recorded inhibition.
                                   compound  measurement_label  unit_abbrev  value_observed
0  CCOC(=O)N1CCN(c2c(N3CCc4ccccc43)c(=O)c2=O)CC1         inhibition            %            2.05
1  O=C(NCCN1C(=O)C2C3C=CC(C3)C2C1=O)NCc1ccccc1 (stereo unspecified)         inhibition            %            1.61
2  CCC(Oc1ccccc1)C(=O)Nc1cc(C)on1 (stereo unspecified)         inhibition            %            0.86
3  CC(C)Oc1ccc(C2CNC(=O)C2)cc1 (stereo unspecified)         inhibition            %            1.04

Continue with the next compound.
# input Return value of inhibition for input CCOC(=O)c1ccc(N2C(=O)CC(N3CCN(Cc4ccccc4)CC3)C2=O)cc1 (stereo unspecified) , no commentary.
# output 0.175

====

- EXPERIMENT: OD615 S. cerevisiae growth inhibition, permissive medium, pilot counter-assay, permissive growth control for S. cerevisiae lifespan shortening project (AID 705)
- STATED CONDITIONS: OD615, 24 h, at 10 µM, stronger effect = higher value
MEASUREMENT LABEL: growth inhibition (%)
Report as a plain number; the unit % is understood.

In the examples that follow, each entry is paired with its recorded growth inhibition.
In [3]: df
Out[3]:
                                   compound  measurement_label  unit_abbrev  value_observed
0                   OCCOCCNc1ncnc2nc[nH]c12  growth inhibition            %           -8.26
1        CCc1nccn1S(=O)(=O)c1ccc(OC)c(OC)c1  growth inhibition            %           -17.4
2  Cc1ccc(CCN2CC(C(=O)NCCCN3CCN(C)CC3)CC2=O)cc1 (stereo unspecified)  growth inhibition            %            1.07

# input Return value of growth inhibition for input Cc1cccn2c(=O)c3cc(C(=O)NC4CCS(=O)(=O)C4)sc3nc12 (stereo unspecified) , no commentary.
# output -6

# input Return value of growth inhibition for input CC(C)N1CCc2c(sc(NC(=O)c3ccc(S(=O)(=O)N4CCOCC4)cc3)c2C#N)C1 , no commentary.
# output -4.83

# input Return value of growth inhibition for input CCCCCCC1C(C#N)=C(N)OC2=C1C(=O)CCC2 (stereo unspecified) , no commentary.
# output -12

====

- EXPERIMENT: viability gain of MRP-1-high H69AR cells under doxorubicin, pilot screen, MRP-1 activator project, CellTiter-Glo, duplicate (AID 807);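 further: compound pretreatment 18-22 h then 72 h combined with doxorubicin; 0% = doxorubicin alone and 100% = vehicle without doxorubicin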
- STATED CONDITIONS: H69AR viability with doxorubicin, CellTiter-Glo luminescence; at 10 µM; stronger effect = higher value
MEASUREMENT LABEL: viability increase (%)
Report as a plain number; the unit % is understood.

In the examples that follow, each entry is paired with its recorded viability increase.
In [3]: df
Out[3]:
                                   molecule  unit_abbrev  value_observed
0  CCN(CC)CC(O)COc1ccccc1C(=O)CCc1ccccc1 (centres undefined)            %           -4.88
1              O=C(NC1CCCCC1)N1CCCc2ccccc21            %           -4.89
2        Cc1cc(NC(=O)CSc2cn(C)c3ccccc23)no1            %           -2.87
3                  CCNC(=O)COc1ccc2ccccc2c1            %            0.99
4           COCCCNC(=O)COc1cc(C)c(Cl)c(C)c1            %           -1.76

# input Return value of viability increase for input O=C(Nc1cccc(Br)c1)c1cc2ccccc2o1 , no commentary.
# output -5

# input Return value of viability increase for input COc1ccc(-n2c(Cc3cccn3C)nnc2SCC(=O)N2CCC(C)CC2)cc1 , no commentary.
# output -0.89

# input Return value of viability increase for input CCOc1ccc(N2C(=O)CC(Sc3nc(C)cc(C)n3)C2=O)cc1 (centres undefined) , no commentary.
# output -1.4

====

- EXPERIMENT: inhibitors of the yeast RAM network, pilot screen, dse1pr::URA3 reporter, 5-FOA selection (AID 869);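 further: 0% = DMSO wells with no growth and 100% = 10 µM 1-NA-PP1 with full growth; RAM network block rescues cells from 5-FOA so hits raise OD615 growth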
- STATED CONDITIONS: S. cerevisiae dse1pr::URA3 5-FOA growth, OD615, 2 d; at 10 µM; stronger effect = higher value; strain carries analog-sensitive mutant Cbk1 kinase
The entries below are paired with their reported inhibition.
Report as a plain number; the unit % is understood.

In the examples that follow, each entry is paired with its recorded inhibition.
>>> print(df.to_string())
                                   compound  measurement_label  value_observed
0  O=C(Nc1nnc(-c2cccs2)o1)c1cccc(C(F)(F)F)c1         inhibition            1.56
1  O=S(=O)(NCC(c1cccnc1)N1CCN(Cc2ccccc2)CC1)c1ccccc1 (centres undefined)         inhibition            1.57
2    COc1ccc(OC)c2sc(NC(=O)c3ccc(Br)s3)nc12         inhibition            2.71
3  CC1Cc2ccccc2N1C(=O)CSC1=NCCS1 (centres undefined)         inhibition            2.67
4  CCC(O)CNc1nc(SC)nc2sc3c(c12)CCN(C)C3 (centres undefined)         inhibition            2.08
5                 Nc1cc(C(=O)c2cccs2)ccc1Cl         inhibition           0.165
6  CCCCCn1c(CN2CC(C)OC(C)C2)nc2c1c(=O)n(C)c(=O)n2C (centres undefined)         inhibition            1.86
7      CCOC(=O)c1[nH]c(C)c(C(=O)N(CC)CC)c1C         inhibition            1.27

# input Return value of inhibition for input COc1ccc(CC(NC(=O)c2ccccc2)C(=O)NCC(=O)O)cc1 (centres undefined) , no commentary.
# output 1.44

# input Return value of inhibition for input O=C(NCCN1C(=O)C2C3C=CC(C3)C2C1=O)Nc1ccc(Br)cc1 (centres undefined) , no commentary.
# output 0.81

# input Return value of inhibition for input O=S(=O)(CCc1nnc(-c2ccccc2)o1)c1ccc2ccccc2c1 , no commentary.
# output 1.96

# input Return value of inhibition for input CCOc1ccccc1Nc1nnc(Cc2ccccc2Cl)c(=O)[nH]1 , no commentary.
# output 0.115

# input Return value of inhibition for input Cc1[nH]c2ccccc2c1Cc1nnc(SCC(N)=O)o1 , no commentary.
# output 1.88
